# pEC50 per record follows
Target: Peroxisome proliferator-activated receptor delta (Homo sapiens)
Sequence (Q03181 whole entry): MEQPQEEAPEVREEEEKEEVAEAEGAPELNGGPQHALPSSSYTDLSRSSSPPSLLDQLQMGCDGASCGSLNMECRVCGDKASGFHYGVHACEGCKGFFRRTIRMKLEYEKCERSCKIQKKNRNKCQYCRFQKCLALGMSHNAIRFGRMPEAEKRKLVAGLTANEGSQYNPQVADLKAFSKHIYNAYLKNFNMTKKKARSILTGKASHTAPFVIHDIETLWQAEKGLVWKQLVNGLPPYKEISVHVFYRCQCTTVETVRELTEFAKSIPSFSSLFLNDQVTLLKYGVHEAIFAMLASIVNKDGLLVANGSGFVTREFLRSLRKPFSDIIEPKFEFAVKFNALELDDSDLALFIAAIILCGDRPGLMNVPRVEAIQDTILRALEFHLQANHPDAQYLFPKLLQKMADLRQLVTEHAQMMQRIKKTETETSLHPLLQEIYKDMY
Assay: Agonist activity at human PPARdelta transfected in COS-7 cells assessed luciferase activity measured after 24 hrs by cell based luciferase transactivation assay
Just so you know, pEC50 here is -log10 of the concentration in molar units; reply with that number alone.

* Cc1cc(N(C)Cc2sc(-c3ccc(C(F)(F)F)cc3)nc2C)ccc1/C=C/C(=O)O | 6.47
* Cc1nc(-c2ccc(C(F)(F)F)cc2)sc1CN(C)c1ccc(/C=C/C(=O)O)cc1 | 6.70
* Cc1nc(-c2ccc(C(F)(F)F)c(F)c2)sc1CSc1ccc(/C=C/C(=O)O)cc1 | 6.87
* Cc1nc(-c2ccc(C(F)(F)F)cc2)sc1CNc1ccc(/C=C/C(=O)O)cc1 | 5.91
* Cc1nc(-c2ccc(C(F)(F)F)cc2)sc1CSc1ccc(/C=C/C(=O)O)cc1 | 6.27

Input: Note down pEC50 recorded for "Cc1nc(-c2ccc(C(F)(F)F)c(F)c2)sc1COc1ccc(/C=C/C(=O)O)cc1"
Output: 7.02

Input: Give the reported pEC50 for this compound. "Cc1nc(-c2ccc(C(F)(F)F)cc2)sc1COc1ccc(/C=C/C(=O)O)cc1"
Output: 6.56

* * *

System: Mesenchymal stem cells
Experiment: Induction of adipogenesis differentiation in human Mesenchymal stem cells at 20 uM incubated for 21 days by […] staining-based microscopic analysis
Type: functional, cell-based
Settings: time 21.0 day
Active and inactive are the calls of the source. No cut-off for these calls is given here.
Thanks in advance; please answer with one of these: active, inactive

Reference set (2 entries):
- Cc1nc(-c2ccc(C(F)(F)F)c(F)c2)sc1CNc1ccc(/C=C/C(=O)O)cc1: active
- Cc1nc(-c2cccc(C(F)(F)F)c2)sc1CNc1ccc(/C=C/C(=O)O)cc1: active

Input: # lookup: test call for "Cc1nn(-c2ccc(C(F)(F)F)cc2)nc1CN(C)c1ccc(/C=C/C(=O)O)cc1"
Output: inactive

* * *

Tested on: Mesenchymal stem cells
Experiment: Induction of adipogenesis differentiation in human Mesenchymal stem cells at 1 uM incubated for 21 days by […] staining-based microscopic analysis
Assay type: functional, cell-based
Conditions: time 21.0 day
Activity calls are given as the source filed them. No cut-off for these calls is given here.
Permitted responses: label 1 for active, label 0 for inactive

Consider the worked cases shown below.
• Cc1nc(-c2ccccc2)sc1CNc1ccc(/C=C/C(=O)O)cc1 = label 1
• Cc1cc(/C=C/C(=O)O)ccc1N(C)Cc1sc(-c2ccc(C(F)(F)F)cc2)nc1C = label 0
• Cc1nn(-c2ccc(C(F)(F)F)cc2)nc1CNc1ccc(/C=C/C(=O)O)cc1 = label 1

Input: What classification did "Cc1nc(-c2cccc(C(F)(F)F)c2)sc1CN(C)c1ccc(/C=C/C(=O)O)cc1" end up with in this test?
Output: label 0

Input: Can you look up the reported call for "Cc1nc(-c2ccc(C(F)(F)F)c(F)c2)sc1CN(C(=O)OC(C)(C)C)c1ccc(/C=C/C(=O)O)cc1" for me?
Output: label 0

* * *

System: Mesenchymal stem cells
Assay: Induction of adipogenesis differentiation in human Mesenchymal stem cells at 20 uM incubated for 21 days by […] staining-based microscopic analysis
Format: functional, cell-based
Settings: time 21.0 day
Calls of active or inactive are those of the source. The rule behind the calls is not given here.
QUANTITY_KIND: Activity

• Cc1nc(-c2ccc(C(F)(F)F)c(F)c2)sc1COc1ccc(/C=C/C(=O)O)cc1 = inactive
• Cc1nc(-c2ccc(C(F)(F)F)c(F)c2)sc1CN(C(=O)OC(C)(C)C)c1ccc(/C=C/C(=O)O)cc1 = Active
• CCCN(Cc1sc(-c2ccc(C(F)(F)F)cc2)nc1C)c1ccc(/C=C/C(=O)O)cc1 = Active
• Cc1nc(-c2ccc(C(F)(F)F)c(F)c2)sc1CSc1ccc(/C=C/C(=O)O)cc1 = inactive
• Cc1nc(-c2ccc(C(F)(F)F)c(F)c2)sc1CN(C)c1ccc(/C=C/C(=O)O)cc1 = Active

Input: For "Cc1nc(-c2cccc(C(F)(F)F)c2)sc1CN(C)c1ccc(/C=C/C(=O)O)cc1" , write its Activity.
Output: Active

FYI, the data here is from ChEMBL document CHEMBL5032493.
